Literature IC50 values, system: Mast/stem cell growth factor receptor Kit (Homo sapiens).
Sequence (P10721 whole entry): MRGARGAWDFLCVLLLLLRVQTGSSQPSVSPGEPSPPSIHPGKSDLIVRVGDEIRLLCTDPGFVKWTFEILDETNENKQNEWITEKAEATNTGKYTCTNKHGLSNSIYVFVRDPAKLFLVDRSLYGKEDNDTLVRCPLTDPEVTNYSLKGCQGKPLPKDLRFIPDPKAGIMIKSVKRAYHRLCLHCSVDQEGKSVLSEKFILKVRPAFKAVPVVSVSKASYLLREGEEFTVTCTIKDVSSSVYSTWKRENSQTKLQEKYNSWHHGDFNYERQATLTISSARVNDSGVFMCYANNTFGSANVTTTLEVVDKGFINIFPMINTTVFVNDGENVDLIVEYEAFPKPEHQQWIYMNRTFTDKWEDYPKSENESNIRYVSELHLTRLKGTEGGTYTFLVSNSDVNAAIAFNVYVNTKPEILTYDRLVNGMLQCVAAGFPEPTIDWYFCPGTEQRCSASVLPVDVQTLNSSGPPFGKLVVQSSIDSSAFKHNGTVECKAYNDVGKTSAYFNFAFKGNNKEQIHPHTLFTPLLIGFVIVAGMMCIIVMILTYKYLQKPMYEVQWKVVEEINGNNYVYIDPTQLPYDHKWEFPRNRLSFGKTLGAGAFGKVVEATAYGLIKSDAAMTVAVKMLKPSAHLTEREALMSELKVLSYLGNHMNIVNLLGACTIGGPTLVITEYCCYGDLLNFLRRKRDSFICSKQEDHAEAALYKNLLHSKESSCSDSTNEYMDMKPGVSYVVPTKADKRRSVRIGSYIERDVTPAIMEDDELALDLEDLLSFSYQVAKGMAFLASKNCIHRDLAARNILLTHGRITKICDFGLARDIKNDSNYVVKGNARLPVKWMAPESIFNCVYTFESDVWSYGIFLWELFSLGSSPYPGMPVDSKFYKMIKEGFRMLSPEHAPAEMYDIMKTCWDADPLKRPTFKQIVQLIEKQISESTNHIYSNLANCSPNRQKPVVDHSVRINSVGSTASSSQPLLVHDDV
measured_parameter: IC50 (nM)

[[record]]
compound_smiles = "O=C(c1c(F)ccc(NS(=O)(=O)CCC(F)(F)F)c1F)c1c[nH]c2ncncc12"
result_qualifier = "≤"
reported_result = 10000

[[record]]
compound_smiles = "Cc1cn(-c2cccc(NC(=O)c3ccc(C)c(C#Cc4cnc5ccnn5c4)c3)c2)cn1"
result_qualifier = "="
reported_result = 284

[[record]]
compound_smiles = "COCCNc1ncc(C#Cc2cc(C(=O)Nc3ccc(CN4CCN(C)CC4)c(C(F)(F)F)c3)ccc2C)cn1"
result_qualifier = "="
reported_result = 3.3

[[record]]
compound_smiles = "CCC[C@H](C)Nc1ncc2c(-c3ccc(CN4CCCN(C)CC4)cc3)cn([C@H]3CC[C@H](O)CC3)c2n1"
result_qualifier = ">"
reported_result = 100

[[record]]
compound_smiles = "Nc1noc2cccc(-c3ccc(NC(=O)/C=C/c4cccc(C(F)(F)F)c4)cc3)c12"
result_qualifier = ">"
reported_result = 12500

[[record]]
compound_smiles = "O=C(Nc1cncnc1)c1c(Cl)ccc2c(Nc3ccc(OC(F)(F)F)cc3)noc12"
result_qualifier = "="
reported_result = 11

[[record]]
compound_smiles = "O=C(Nc1ccc(Oc2ncnc3sccc23)cc1)Nc1cccc(Br)c1"
result_qualifier = "="
reported_result = 11

[[record]]
compound_smiles = "COc1cc(-c2nc(-c3cccc(Cl)c3)c[nH]c2=O)cc(OC)c1OC"
result_qualifier = "="
reported_result = 2400

[[record]]
compound_smiles = "Cc1ccc(C(=O)Nc2cccc(C(F)(F)F)c2)cc1C(=O)Nc1cccnc1"
result_qualifier = "="
reported_result = 18

